Record form. Attribute: koff. Fill in for each entry.
assay.target: T1, Recombinant human EGFR (human, UniProt P00533 25-645, limits assumed)
T1 construct: Immobilized by amine coupling on a carboxymethyl dextran SPR chip; also called epidermal growth factor receptor; surface-immobilized EGFR
test.description: SPR, EGFR immobilized, peptide as analyte, 1:1 model
Where no end group is shown, it is not given here.

koff for WSGENGPGYFDYEA (Designed cetuximab mimic peptide for EGFR, made by synthesis; also called No. 6) [Pep6] is 0.00581 s⁻¹

Lab book: koff of WSGENGPGTFYDYEA (also called EGFR-PEP22; No. 22) [Pep22] noted as 0.0259 s⁻¹

Sure, the documented koff for WSGENGPGFYDYEA (not fully specified, Designed cetuximab mimic peptide for EGFR; Unlabelled in SPR; also called EGFR-PEP11; FITC-Pep11) [Pep11] is 0.0252 s⁻¹

Looking up AEYDFYGPGNEGSW (also called No. 24) [Pep24] , I see its koff listed as 0.103 s⁻¹
